Target: KRAS
Conditions: ASO, A431, 0.556 µM
After the bases stand the sugars from the 5' end (letter, count) and the backbone: PS all phosphorothioate, else s phosphorothioate and o phosphodiester by linkage. Methylation of C is not given here. e = 2'-O-(2-methoxyethyl) (MOE); k = constrained ethyl (cEt); d = 2'-deoxy (DNA)
Listed below: target mRNA inhibition values for each entry.
readout_type: target mRNA inhibition (%)

GTGTTTATGCAATGTT (sugars k3 d9 k3 e1, PS)	63
GGTGTAACATAGGTTA (sugars kkddddddddkekekk, PS)	2
TGATTTGTCAGCAGGA (sugars kkddddddddddkeke, PS)	48
CCATTCAAAGTTCACA (sugars kkddddddddddkeke, PS)	32
TCCATTTATGTGACTA (sugars k3 d10 k3, PS)	59
CAGTGTGACTCAGTTA (sugars kkkddddddddkdkdk, PS)	24

* * *

Biological target: IRF5
Conditions: ASO, KARPAS-229, 4 µM
After the bases stand the sugars from the 5' end (letter, count) and the backbone: PS all phosphorothioate, else s phosphorothioate and o phosphodiester by linkage. Methylation of C is not given here. e = 2'-O-(2-methoxyethyl) (MOE); k = constrained ethyl (cEt); d = 2'-deoxy (DNA)
The label depends only on target mRNA inhibition: TRUE if it is at least 20%, FALSE if it is smaller.

CCCAATGCAACATCCA (sugars kkdddddddddkekek, PS)	FALSE
TGTCTAGTGTCATGGA (sugars kkkddddddddkekek, PS)	TRUE
ACCATTCTATGCCTTT (sugars kddddddddddkekek, PS)	FALSE
GTGAGTCTCAAACCAG (sugars kekdddddddddeekk, PS)	TRUE
CATTCCATATACACAC (sugars kkkdddddddddkeke, PS)	TRUE
CCAATTTTGCATTCCA (sugars kkdddddddddkekek, PS)	FALSE
CACTGACACAGGCGGA (sugars kdddddddddddekek, PS)	FALSE
GTCTTGACCTCCCGCT (sugars kkkddddddddkekek, PS)	TRUE
GTCTAGTGTCATGGAA (sugars kkddddddddkekekk, PS)	FALSE
TGTTGAATTTTGTGAC (sugars k3 d10 k3, PS)	TRUE

* * *

Molecular target: APOL1
Details: ASO, A431, 0.0625 µM
After the bases stand the sugars from the 5' end (letter, count) and the backbone: PS all phosphorothioate, else s phosphorothioate and o phosphodiester by linkage. Methylation of C is not given here. e = 2'-O-(2-methoxyethyl) (MOE); k = constrained ethyl (cEt); d = 2'-deoxy (DNA)
readout_type: target mRNA inhibition (%)

TTCAGCTAAGACCAGT (sugars k4 d9 k3, PS)	35
TATTTCTTGATGTGGT (sugars k3 d4 k3 e1 d5, PS)	78
ATTCTCATGGTACAGG (sugars k3 d4 k3 e1 d5, PS)	48
TCCTGGGCGGCGACAA (sugars k4 d9 k3, PS)	46
ACCCTTTTGGCACCTT (sugars k4 d9 k3, PS)	49
AGGGAAATGAACGCAA (sugars k4 d9 k3, PS)	38
GGAAATGAACGCAATG (sugars k4 d9 k3, PS)	37
GCTATGGAAATGCCAA (sugars k4 d9 k3, PS)	28
GCTGGGTCTGTAGTGG (sugars k4 d9 k3, PS)	49
AGTTTTGTAAGTGCAA (sugars k3 d4 k3 e1 d5, PS)	60
AAGCTTTAAACTCAGG (sugars kkddddekekeddddd, PS)	58
CAGCTATGGAAATGCC (sugars k4 d9 k3, PS)	34
CCTTATGCTTACTCCA (sugars k4 d9 k3, PS)	68
GATTCTGTGTGCTCAC (sugars k4 d9 k3, PS)	46
GAACGCAATGCTGACT (sugars k2 d4 e3 k2 d5, PS)	42
TTTGTAAGTGCAACCA (sugars kkdddddkekeddddd, PS)	46
GCTAATTTTCTGACTG (sugars k3 d4 k3 e1 d5, PS)	46
CTTTATACCAGTGTCT (sugars k3 d10 k3, PS)	30
GAGAACATTGAAACAC (sugars k3 d10 k3, PS)	19
ACTTCTGTTAGATACA (sugars k4 d9 k3, PS)	38
CAGTCAGCAGGAGTAG (sugars k4 d9 k3, PS)	30
GCTAATTTTCTGACTG (sugars k2 d4 e3 k2 d5, PS)	62
ATTCTCATGGTACAGG (sugars kkkddddkekeddddd, PS)	41
